Record form. Attribute: growth. Fill in for each entry.
Tested on: MDA-MB-231 breast
Experiment: NCI-60 one-dose screen, 48 h (100 = growth as untreated, 0 = no growth, -100 = all killed)
Conditions: 10 µM unless noted
Description: Cells are grown in 96 well plates and exposed to the test compound for 48 hours. Compounds are tested at a single concentration, which is 10^-5 M for most compounds. The reported endpoint is percent growth (GI% or GIPRCNT), where numbers from 0 - 100% represent growth inhibition, and numbers from -100% - 0 represent cell death. For example, a value of 40 represents 60% growth inhibition. A value of 0 means no net growth occurred over the course of the experiment. […]
This is part of a sample that, as a whole, favours compounds with a hit. Of some 83,000 tested, about 20% had one in any assay.
Numbers only, in %.

> print(dat)
                                   molecule  measured
1  Cn1c(=O)c2c(c3ccccc31)OC(N)=C(C#N)C21C(=O)c2ccccc2C1=O      81.6
2            N#CCC1=NC(c2cccs2)=Nc2ccccc2S1      90.1
3  CCC(C)Nc1ccc(NC(C)CC)cc1 (stereo not given)        82
4  Cc1ccc2[nH]c(=O)c3c(c2c1)OC(N)=C(C#N)C31C(=O)c2cccc3cccc1c23 (stereo not given)      87.4

Okay, now this molecule:
input: Quick check: growth of O=C(/C=C/c1cccc(Cl)c1)c1cccc(OCCCCOc2cccc(C(=O)/C=C/c3cccc(Cl)c3)c2)c1 ?
output: 97.1

* * *

test system: KM12 colon; assay: NCI-60 one-dose screen, 48 h (100 = growth as untreated, 0 = no growth, -100 = all killed); details: 10 µM unless noted
About 83,000 compounds went through this panel and 20% of them were active in at least one assay; those are over-represented in the sample as a whole.
Criterion: growth meeting or surpassing 30%. Met: Satisfied. Not met: Not satisfied.

A selection of reference data follows.
> print(dat)
                                   compound     labelvalue
1  CCN(CC)CCCNCc1cc(-c2ccccc2)nc2cc(Cl)ccc12  Not satisfied
2  CCOC(=O)c1c(-c2ccc(Cl)cc2)c(C#N)c2c(C#N)c(N)nn2c1N      Satisfied
3  COc1ccc(OC)c(-c2cn3nc(-c4c[nH]c5ccc(Br)cc45)sc3n2)c1  Not satisfied
4  COc1ccc(-c2cc(C(=O)N3N=C(c4ccc(N)cc4)CC3c3ccccc3)c3ccccc3n2)cc1 (centres undefined)  Not satisfied
5  O=C1NC(=C(Cl)Cl)/C(=N/S(=O)(=O)N2CCCCC2)N1  Not satisfied
6  COc1ccc(C/C(C)=C(/c2ccc(OCCN3CCCCCC3)cc2)c2ccc(OC(=O)NCc3ccccc3)cc2)cc1      Satisfied

input: Could you tell me if the measured growth of CCOC(=O)c1c(NC(=O)c2ccc(OC)cc2)sc2c(CN(C)C)c(O)ccc12 reaches 30% or more?
output: Satisfied

input: Check COC(=O)C1=C(C)NC(C)=C(C(=O)OCC(C)C)C1c1ccccc1[N+](=O)[O-] (centres undefined) too.
output: Not satisfied

input: Check C=C(c1ccc(C(=O)O)cn1)c1cc2c(cc1C)C(C)(C)CCC2(C)C too.
output: Satisfied

* * *

test system: SF-268 CNS; assay: NCI-60 one-dose screen, 48 h (100 = growth as untreated, 0 = no growth, -100 = all killed); conditions: 10 µM unless noted
About 83,000 compounds went through this panel and 20% of them were active in at least one assay; those are over-represented in the sample as a whole.
Class field: derived from growth; ranges low: < 40%; intermediate: ≥ 40% and < 80%; high: ≥ 80%

A selection of reference data follows.
> print(dat)
                                   compound    labelvalue
1  COc1ccc2c(c1)c(-c1nc(-c3cn(C)c4ncccc34)cs1)cn2CCO          high
2  CCOC(=O)c1c(C)nc2c(c1N)CC(=O)N2Cc1cc(OC)c(OC)c(OC)c1  intermediate
3  Cc1c2cnccc2c(C)c2c1c1cc(C3OCCCO3)ccc1n2C           low

input: Textbook exercise: identify the category of the compound given here, CCn1cc(C(=O)NN=C2CCCCCC2)c(=O)c2ccc(C)nc21 , according to its measured value.
output: high

input: Check CCN(CCO)CC(C)Nc1ccc([N+](=O)[O-])c2sc3ccccc3c(=O)c12 (stereo not given) too.
output: low

* * *

Record form. Attribute: growth. Fill in for each entry.
system: 786-0 renal; assay: NCI-60 one-dose screen, 48 h (100 = growth as untreated, 0 = no growth, -100 = all killed); conditions: 10 µM unless noted
This is part of a sample that, as a whole, favours compounds with a hit. Of some 83,000 tested, about 20% had one in any assay.
Answers are plain numbers, in %.

> print(dat)
                                   compound  propertyname  measured
1  COc1cc(/C=C/c2cc(/C=C/c3ccc(O)c(OC)c3)n(C(=O)Nc3ccc(F)cc3)n2)ccc1O        growth      -6.9

Working through the 2 compounds below one at a time, give growth for each.
1. CN(C)c1ccc(/C=C2/C=C(c3ccccc3)OC2=O)cc1
2. CCCCCCCCn1ccc2cc(NC(=O)Cn3cc(CN4CCC(C)CC4)nn3)ccc21

output:
1: 100; 2: 0.91

* * *

system: SW-620 colon; test: NCI-60 one-dose screen, 48 h (100 = growth as untreated, 0 = no growth, -100 = all killed); details: 10 µM unless noted
Compounds without any hit were thinned out: in the full panel of roughly 83,000, 20% have a hit. Calls of active or inactive are those of the source. How the source made its calls: active means growth percent below 10; inactive means the rest.
Record form. Attribute: growth. Fill in for each entry.

Check out these entries, answers already filled in.
compound	growth
CCOC(=O)C1CCN(c2ccc(N3C[C@@H](CNCc4ccc(C(=N)N)cc4)OC3=O)cc2)CC1	97.1% (inactive)
CC1(C)CC[C@]2(C(=O)O)CC[C@]3(C)C(=CC[C@@H]4[C@@]5(C)C[C@@H](Cc6cn([C@@H]7O[C@H](CO)[C@@H](O)[C@H](O)[C@H]7O)nn6)[C@H](O)C(C)(C)[C@@H]5CC[C@]43C)[C@@H]2C1	102% (inactive)
N#Cc1nc2c(S(=O)(=O)c3ccccc3)c(N)n(Cc3cccnc3)c2nc1C#N	77.7% (inactive)

Working through the 8 compounds below one at a time, give growth for each.
1. COc1ccc(-c2ccc(-c3ccc(C(=N)N)cn3)s2)cc1
2. N=C(N)c1ccc(-c2ccc(-c3ccc(F)cc3)s2)s1
3. COc1ccc(-c2cc(-c3cc(OC)c(OC)c(OC)c3)c(C#N)c(=O)n2CCCCCC(=O)NO)cc1
4. COc1ccc2nc(Cl)c(/C=C/C(=O)c3ccc(NC(=O)CSc4nnc(-c5ccc(Cl)c(Cl)c5)n4-c4ccccc4)cc3)cc2c1
5. O=C(Nc1ccc(F)cc1)Nc1ccccc1CNc1nc(Nc2ccc(OCCN3CCCC3)cc2)ncc1Cl
6. Cc1cc2oc(=O)cc(CP(=O)(O)O)c2cc1O
7. CCOC(=O)c1n[nH]n2c1nc(=O)c1cnn(C)c12
8. CCCCCCCCn1ccc2cc(NC(=O)Cn3cc(CN4CCCCCC4)nn3)ccc21

output:
1: 8.29% (active); 2: -65.2% (active); 3: 101% (inactive); 4: 92.3% (inactive); 5: 27.8% (inactive); 6: 91.3% (inactive); 7: 108% (inactive); 8: -78.3% (active)

Working through the 7 compounds below one at a time, give growth for each.
1. CCCCc1oc2ccccc2c1C(=O)c1ccc(O)cc1
2. N#C/C(=C\c1ccc(Cl)cc1Cl)C(=O)Nc1ncc(Cc2ccc(Cl)c(Cl)c2)s1
3. COC(c1ccc2ccccc2c1)C(C)C(F)F (stereo unspecified)
4. O=C1/C=C/[C@@H](O)[C@@H]2C[C@@H](O)C[C@H]2/C=C/CCC[C@H](CCOCc2ccccc2)O1
5. COC(=O)c1nc(-c2ccccc2)oc1S(=O)(=O)N1CCC(C(N)=O)CC1
6. O=C1NC(=C(Cl)Cl)/C(=N/S(=O)(=O)NCCc2c[nH]c3ccccc23)N1
7. C=CC(=O)N1CCN(c2ccc3cccc(NC(=O)c4cnc(C)cn4)c3n2)CC1

output:
["99.8% (inactive)", "62.6% (inactive)", "106% (inactive)", "-23.8% (active)", "25.4% (inactive)", "54.3% (inactive)", "48.7% (inactive)"]

* * *

tested on: UACC-62 melanoma; assay: NCI-60 one-dose screen, 48 h; details: 10 µM unless noted
This is part of a sample that, as a whole, favours compounds with a hit. Of some 83,000 tested, about 20% had one in any assay. The source made the active and inactive calls. How the source made its calls: active means growth percent below 10; inactive means the rest.
Can you answer with just one of these options? t (active), f (inactive)

A selection of reference data follows.
> print(dat)
                                   molecule  measurementtarget  labelvalue
1  O=C(CSc1nc2ccc([N+](=O)[O-])cc2[nH]1)Nc1cccc([N+](=O)[O-])c1   UACC-62 melanoma           f
2  Cc1nn(-c2ccccc2)c(/N=C/N(C)C)c1/C=C/C(=O)c1ccc(Cl)cc1   UACC-62 melanoma           f
3  COc1ccc(C2C3=C(COC3=O)N(CCO)c3cc4c(cc32)OCCO4)cc1OC (stereo not given)   UACC-62 melanoma           f
4  COc1ccc(NC(=O)c2ccc(C(=O)Nc3ccc(OC)cc3OC)cc2)c(OC)c1   UACC-62 melanoma           f
5  CCOC(=O)c1c(C)nc2c(c1N)CC(=O)N2Cc1cc(OC)c(OC)c(OC)c1   UACC-62 melanoma           f

input: Called result for COc1ccc(Cc2cnc(NC(=O)c3sc4ccccc4c3Cl)s2)cc1
output: f

input: Check CC1(C)CC2=C3C=C[C@@H]4[C@@]5(C)CC[C@H](O)C(C)(C)[C@@H]5CC[C@@]4(C)[C@]3(C)CC[C@@]2(C(=O)O)CC1=O too.
output: f

input: Check CS(=O)(=O)Cc1cnc(C2OCCO2)s1 too.
output: f

input: Check O=C1/C=C/[C@@H](O)[C@@H]2C[C@@H](O)C[C@H]2/C=C/CCC[C@H](CCOCc2ccccc2)O1 too.
output: t

input: Check CCN(CC)c1ccc(/C=N/NC(=O)c2ccc(Nc3ccnc(C(F)(F)F)c3)cc2)c(O)c1 too.
output: t

input: Check CCCCCCCC/C=C\CCCCCCCCOc1ccc(CC(=O)NCC[N+](C)(C)C)cc1 too.
output: f

input: Check CCn1cc(C(=O)N/N=C/c2ccc(Br)cc2)c(=O)c2cc(F)c(N3CCNC(C)C3)c(F)c21 (stereo not given) too.
output: f
